Please respond with reported TT for every item in the list.
# targetOrTestSystem: Prothrombin (Homo sapiens, UniProt P00734)
# procedureSummary: Concentration of inhibitor required to produce a 2-fold prolongation in Thrombin time (TT)
Answers are plain numbers, in µM.

{"columns": ["compound", "measuredMetric", "unitAnnotation", "dataValue"],
 "data": [
  ["CCCCCCCCC(NC(=O)[C@@H]1CCCN1C(=O)[C@H](Cc1ccccc1)NC(=O)OCc1ccccc1)B1O[C@@H]2CC3CC(C3(C)C)[C@]2(C)O1 (stereo not given in full)", "TT", "µM", 3.9]
]}

Dear reader, for each entry below, please note its TT.
1. CCCCCC(NC(=O)[C@@H]1CCCN1C(=O)[C@H](Cc1ccccc1)NC(=O)OCc1ccccc1)B1O[C@@H]2CC3CC(C3(C)C)[C@]2(C)O1 (stereo in doubt; 3)
2. CC1(C)C2CC1[C@]1(C)OB(C(Cc3ccccc3)NC(=O)[C@@H]3CCCN3C(=O)[C@@H](NC(=O)OCc3ccccc3)C(c3ccccc3)c3ccccc3)O[C@@H]1C2 (stereo not given in full)
3. CCC(C)(C)C(NC(=O)[C@@H]1CCCN1C(=O)[C@@H](NC(=O)OCc1ccccc1)C(c1ccccc1)c1ccccc1)B1O[C@@H]2CC3CC(C3(C)C)[C@]2(C)O1 (stereo not given in full)
4. CCC(C)(C)C(NC(=O)[C@@H]1CCCN1C(=O)[C@H](Cc1ccc2ccccc2c1)NC(=O)OCc1ccccc1)B1O[C@@H]2CC3CC(C3(C)C)[C@]2(C)O1 (stereo not given in full)
5. COCCC[C@@H](NC(=O)[C@@H]1CCCN1C(=O)[C@@H](Cc1ccccc1)NC(=O)OCc1ccccc1)B1O[C@@H]2CC3CC(C3(C)C)[C@]2(C)O1 (stereo in doubt; 9a)
6. CC1(C)C2CC1[C@]1(C)OB(C(CCC3OCCO3)NC(=O)[C@@H]3CCCN3C(=O)[C@H](Cc3ccccc3)NC(=O)OCc3ccccc3)O[C@@H]1C2 (stereo not given in full)
7. CCC(C)(C)C(NC(=O)[C@@H]1CCCN1C(=O)[C@H](Cc1ccccc1)NC(=O)OCc1ccccc1)B1O[C@@H]2CC3CC(C3(C)C)[C@]2(C)O1 (stereo not given in full)
8. COCCCC(NC(=O)[C@@H]1CCCN1C(=O)[C@@H](NC(=O)OCc1ccccc1)C(c1ccccc1)c1ccccc1)B1O[C@@H]2CC3CC(C3(C)C)[C@]2(C)O1 (stereo not given in full)

**Result**
[0.54, 5.2, 21, 16, 2.8, 3.4, 1.1, 0.63]

**Query** Observed TT on Prothrombin (Homo sapiens, UniProt P00734) for CC1(C)C2CC1[C@]1(C)OB(C(Cc3ccccc3)NC(=O)[C@@H]3CCCN3C(=O)[C@H](Cc3ccccc3)NC(=O)OCc3ccccc3)O[C@@H]1C2 (stereo not given in full) , please.
**Result** 0.53

###

# procedureSummary: Binding affinity against protein Ca
Please respond with reported Ki for every item in the list.
One number for each entry, in µM.

{"columns": ["molecule", "measuredMetric", "dataValue"],
 "data": [
  ["CCCCCC(NC(=O)[C@@H]1CCCN1C(=O)[C@@H](NC(=O)OCc1ccccc1)C(c1ccccc1)c1ccccc1)B1O[C@@H]2CC3CC(C3(C)C)[C@]2(C)O1 (some centres undefined)", "Ki", 53]
]}

**Query** I have this molecule here, COCCCC(NC(=O)[C@@H]1CCCN1C(=O)[C@@H](NC(=O)OCc1ccccc1)C(c1ccccc1)c1ccccc1)B1O[C@@H]2CC3CC(C3(C)C)[C@]2(C)O1 (some centres undefined) , and I need its recorded Ki.
**Result** 2.4

###

# targetOrTestSystem: Prothrombin (Homo sapiens)
# procedureSummary: Binding affinity against thrombin
measuredMetric: Ki (µM)
Give bare numbers, in µM.

{"columns": ["molecule", "Ki [µM]"],
 "data": [
  ["CC1(C)C2CC1[C@]1(C)OB(C(CCCBr)NC(=O)[C@@H]3CCCN3C(=O)[C@H](Cc3ccccc3)NC(=O)OCc3ccccc3)O[C@@H]1C2 (stereo in doubt; 13)", 15],
  ["COCCC[C@@H](NC(=O)[C@@H]1CCCN1C(=O)[C@@H](Cc1ccccc1)NC(=O)OCc1ccccc1)B1O[C@@H]2CC3CC(C3(C)C)[C@]2(C)O1 (stereo in doubt; 9b)", 0.007],
  ["CC1(C)C2CC1[C@]1(C)OB(C(CCCBr)NC(=O)[C@@H]3CCCN3C(=O)[C@H](Cc3ccccc3)NC(=O)OCc3ccccc3)O[C@@H]1C2 (stereo in doubt; 14)", 0.13]
]}

Dear reader, for each entry below, please note its Ki.
1. CCCCCC(NC(=O)[C@@H]1CCCN1C(=O)[C@@H](NC(=O)OCc1ccccc1)C(c1ccccc1)c1ccccc1)B1O[C@@H]2CC3CC(C3(C)C)[C@]2(C)O1 (some centres not stated)
2. COCCC(NC(=O)[C@@H]1CCCN1C(=O)[C@H](Cc1ccccc1)NC(=O)OCc1ccccc1)B1O[C@@H]2CC3CC(C3(C)C)[C@]2(C)O1 (some centres not stated)
3. CCC(C)(C)C(NC(=O)[C@@H]1CCCN1C(=O)[C@@H](NC(=O)OCc1ccccc1)C(c1ccccc1)c1ccccc1)B1O[C@@H]2CC3CC(C3(C)C)[C@]2(C)O1 (some centres not stated)
4. CC1(C)C2CC1[C@]1(C)OB(C(CCC3OCCO3)NC(=O)[C@@H]3CCCN3C(=O)[C@H](Cc3ccccc3)NC(=O)OCc3ccccc3)O[C@@H]1C2 (some centres not stated)
5. COCCC[C@@H](NC(=O)[C@@H]1CCCN1C(=O)[C@@H](Cc1ccccc1)NC(=O)OCc1ccccc1)B1O[C@@H]2CC3CC(C3(C)C)[C@]2(C)O1 (stereo in doubt; 11)
6. CCC(C)(C)C(NC(=O)[C@@H]1CCCN1C(=O)[C@H](Cc1ccccc1)NC(=O)OCc1ccccc1)B1O[C@@H]2CC3CC(C3(C)C)[C@]2(C)O1 (some centres not stated)
7. CC1(C)C2CC1[C@]1(C)OB(C(CCCl)NC(=O)[C@@H]3CCCN3C(=O)[C@H](Cc3ccccc3)NC(=O)OCc3ccccc3)O[C@@H]1C2 (some centres not stated)

**Result**
0.042
0.021
0.082
0.025
0.12
0.007
0.029

Dear reader, for each entry below, please note its Ki.
1. CCCCCCCCC(NC(=O)[C@@H]1CCCN1C(=O)[C@H](Cc1ccccc1)NC(=O)OCc1ccccc1)B1O[C@@H]2CC3CC(C3(C)C)[C@]2(C)O1 (some centres not stated)
2. CCCCCC(NC(=O)[C@@H]1CCCN1C(=O)[C@H](Cc1ccccc1)NC(=O)OCc1ccccc1)B1O[C@@H]2CC3CC(C3(C)C)[C@]2(C)O1 (stereo in doubt; 2)

**Result**
1: 0.043; 2: 0.026

###

Please respond with reported Ki for every item in the list.
# procedureSummary: Binding affinity against protein Ca
One number for each entry, in µM.

# annotated cases, reported Ki shown
{"columns": ["compound", "Ki, µM"],
 "data": [
  ["COCCC[C@@H](NC(=O)[C@@H]1CCCN1C(=O)[C@@H](Cc1ccccc1)NC(=O)OCc1ccccc1)B1O[C@@H]2CC3CC(C3(C)C)[C@]2(C)O1 (stereo in doubt; 9a)", 2.1],
  ["CCCCCC(NC(=O)[C@@H]1CCCN1C(=O)[C@H](Cc1ccccc1)NC(=O)OCc1ccccc1)B1O[C@@H]2CC3CC(C3(C)C)[C@]2(C)O1 (stereo in doubt; 3)", 1.6]
]}

Dear reader, for each entry below, please note its Ki.
1. CCC(C)(C)C(NC(=O)[C@@H]1CCCN1C(=O)[C@H](Cc1ccccc1)NC(=O)OCc1ccccc1)B1O[C@@H]2CC3CC(C3(C)C)[C@]2(C)O1 (stereo not given in full)
2. CCC(C)(C)C(NC(=O)[C@@H]1CCCN1C(=O)[C@H](Cc1ccc2ccccc2c1)NC(=O)OCc1ccccc1)B1O[C@@H]2CC3CC(C3(C)C)[C@]2(C)O1 (stereo not given in full)

**Result**
[4.2, 32]

###

# targetOrTestSystem: Prothrombin (Homo sapiens, UniProt P00734)
# procedureSummary: Binding affinity against alpha thrombin
Please respond with reported pKi for every item in the list.
Numbers only, as −log10 of the molar value.

{"columns": ["molecule", "pKi"],
 "data": [
  ["COCCCC(NC(=O)[C@@H]1CCCN1C(=O)[C@@H](NC(=O)OCc1ccccc1)C(c1ccccc1)c1ccccc1)B1O[C@@H]2CC3CC(C3(C)C)[C@]2(C)O1 (stereo partly drawn)", 8.70],
  ["CCCCCC(NC(=O)[C@@H]1CCCN1C(=O)[C@H](Cc1ccccc1)NC(=O)OCc1ccccc1)B1O[C@@H]2CC3CC(C3(C)C)[C@]2(C)O1 (stereo in doubt; 3)", 7.72]
]}

Next molecule, please.
**Query** I have this molecule here, CCC(C)(C)C(NC(=O)[C@@H]1CCCN1C(=O)[C@@H](NC(=O)OCc1ccccc1)C(c1ccccc1)c1ccccc1)B1O[C@@H]2CC3CC(C3(C)C)[C@]2(C)O1 (stereo partly drawn) , and I need its recorded pKi.
**Result** 7.55
